# assay-notes: Mouse pharmacokinetics of IMM60 after i.v. liposomal or soluble IMM60 (Example 7)
# Format: in vivo, mouse (C57BL/6 and CD1)
# condition-description: mouse, plasma, iv, 0.05 mg/kg, mean ± SE, 1000 ng (50 μg/kg) i.v.; read-out: Cmax
parameter: Cmax (ng/mL)
The answer is to be given in ng/mL; state only the numeric part.

Problem: Find the measured Cmax of CCCCCCCCCCCCCCCCCCCCCCCCCC(=O)N[C@@H](CO[C@H]1CC[C@H](O)[C@H](O)[C@H]1O)[C@H](O)[C@H](O)CCCCCCCCCCCCCC and report it.
Result: 90

====

# assay-notes: Mouse pharmacokinetics of IMM60 after i.v. liposomal or soluble IMM60 (Example 7)
# Type: in vivo, mouse (C57BL/6 and CD1)
# condition-description: mouse, plasma, iv, 0.0015 mg, average, CD1, 1500 ng i.v., 10 min
parameter: Cmax at 10 min (µg/mL)
Write the value in µg/mL as a bare number.

Problem: Using the record for CCCCCCCCCCCCCCCCCCCCCCCCCC(=O)N[C@@H](CO[C@H]1CC[C@H](O)[C@H](O)[C@H]1O)[C@H](O)[C@H](O)CCCCCCCCCCCCCC , state its measured Cmax at 10 min.
Result: 0.0837

====

# assay-notes: Mouse pharmacokinetics of IMM60 after i.v. liposomal or soluble IMM60 (Example 7)
# Type: in vivo, mouse (C57BL/6 and CD1)
# condition-description: mouse, plasma, iv, 0.05 mg/kg, C57BL and CD1 strains, high dose; read-out: Volume of distribution Vd
parameter: Vd

Problem: Consider the compound CCCCCCCCCCCCCCCCCCCCCCCCCC(=O)N[C@@H](CO[C@H]1CC[C@H](O)[C@H](O)[C@H]1O)[C@H](O)[C@H](O)CCCCCCCCCCCCCC . State its measured Vd.
Result: 0.558 to 0.639 L/kg

====

# assay-notes: Mouse pharmacokinetics of IMM60 after i.v. liposomal or soluble IMM60 (Example 7)
# Format: in vivo, mouse (C57BL/6 and CD1)
# condition-description: mouse, plasma, iv, 0.05 mg/kg, C57BL and CD1 strains, high dose; read-out: Half life T1/2
parameter: half-life

Problem: Specify half-life for CCCCCCCCCCCCCCCCCCCCCCCCCC(=O)N[C@@H](CO[C@H]1CC[C@H](O)[C@H](O)[C@H]1O)[C@H](O)[C@H](O)CCCCCCCCCCCCCC [soluble IMM60] and stop.
Result: 1.58 to 2.32 h

====

# assay-notes: Mouse pharmacokinetics of IMM60 after i.v. liposomal or soluble IMM60 (Example 7)
# Type: in vivo, mouse (C57BL/6 and CD1)
# condition-description: mouse, plasma, iv, 0.001 mg, individual mouse, C57BL/6, 1000 ng i.v.; read-out: Vd
# Description: The two strains of mice that were compared were CD1 mice (not to be confused with CD1d-KO mice) and C57BL/mice. The half-life, volume of distribution, clearance, AUC, and Cmax were calculated using the one-compartmental model with first-order kinetics. […] Plasma samples were analyzed by LC/MS/MS at Frontage Laboratories. […] Plasma concentrations were measured 10 and 180 minutes after IV administration. […]
parameter: Vd (L)
A number alone suffices; assume L.

Problem: Return Vd (reported value) for this compound: CCCCCCCCCCCCCCCCCCCCCCCCCC(=O)N[C@@H](CO[C@H]1CC[C@H](O)[C@H](O)[C@H]1O)[C@H](O)[C@H](O)CCCCCCCCCCCCCC
Result: 0.0109
